- Experimental System: NANPNVDP (Plasmodium falciparum)
- Procedure Details: BLI, target on sensor
Measure Name: pKd
// pKd: -log10(molar conc.)

- Binder: "AB-007047 (antibody, V domains shown) VH: QMQLVESGGGVVQPGRSLRLSCTASGFTFSNYAMHWVRQSPGQGLQWVAVISYHSTNKYYEDSVRGRFTISRDNSKNTLYLQMNSLRAEDTAVYYCARDGYSSSFFDFWGQGTLVTVSS VL: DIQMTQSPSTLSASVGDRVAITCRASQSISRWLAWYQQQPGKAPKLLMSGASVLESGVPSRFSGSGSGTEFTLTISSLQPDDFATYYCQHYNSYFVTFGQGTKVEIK"
  Reported Measurement: 8.00
- Binder: "AB-007038 (antibody, V domains shown) VH: QMQLVESGGGVVQPGRSLRLSCTASGFTFSTYAMHWVRQSPGQGLQWVAVISYHSTNKYYEDSVRGRFTISRDNSKNTLYLQMNSLRAEDTAVYYCARDGYSSSFFDYWGQGTLVTVSS VL: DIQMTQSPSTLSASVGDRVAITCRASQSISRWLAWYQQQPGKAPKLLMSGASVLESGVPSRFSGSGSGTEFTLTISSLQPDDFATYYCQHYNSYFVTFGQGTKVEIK"
  Reported Measurement: 7.96

Field: next binder
Lookup: Please indicate pKd recorded for AB-007053 (antibody, V domains shown) VH: QMQLVESGGGVVQPGRSLRLSCTASGFTFSTYAMHWVRQSPGQGLQWVAVISYHSTQKYYEDSVRGRFTISRDNSKNTLYLQMNSLRAEDTAVYYCARDGYSSSFFDFWGQGTLVTVSS VL: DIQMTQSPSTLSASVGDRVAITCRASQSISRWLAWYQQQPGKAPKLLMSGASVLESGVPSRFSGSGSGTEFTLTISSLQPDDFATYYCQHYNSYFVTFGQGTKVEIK
Found: 7.61
